- Method: CCTE_Shafer_MEA_acute_synchrony_index: CCTE's Neural Acute Assay for Synchrony, Shafer Lab (AID 2284027);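 note: network synchrony index of spontaneous spiking in primary rat cortical neurons on MEAs; fitted for loss of signal so actives lower synchrony relative to DMSO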
Activity calls are given as the source filed them. Rule for the calls: active = hit-call score of the fitted dose curve at least 0.9, where 1 is the maximum; inactive = score below 0.9.
Please state which outcome applies, choosing from active, inactive

Record request — test call for "c1cc(-c2ccncc2)ccn1"
inactive

Now give it for "Nc1ccc2c(c1)C(=O)c1ccccc1C2=O" too.
inactive

What would you report for "C=CCOC(=O)c1ccccc1C(=O)OCC=C" ?
inactive

Queued: "COc1ccc2c(c1)c(CC(=O)O)c(C)n2C(=O)c1ccc(Cl)cc1"
inactive

Same thing, different molecule: "C=CCc1ccc(O)c(OC)c1"
active

Moving on to "NS(=O)(=O)c1cc2c(cc1Cl)NCNS2(=O)=O"
inactive

Try "NCC1(Cc2noc(=O)[nH]2)CCCCC1" next.
inactive

====

- Assay target: PGR (gene 5241) (UniProt P06401)
- Sequence (P06401 whole entry, looked up): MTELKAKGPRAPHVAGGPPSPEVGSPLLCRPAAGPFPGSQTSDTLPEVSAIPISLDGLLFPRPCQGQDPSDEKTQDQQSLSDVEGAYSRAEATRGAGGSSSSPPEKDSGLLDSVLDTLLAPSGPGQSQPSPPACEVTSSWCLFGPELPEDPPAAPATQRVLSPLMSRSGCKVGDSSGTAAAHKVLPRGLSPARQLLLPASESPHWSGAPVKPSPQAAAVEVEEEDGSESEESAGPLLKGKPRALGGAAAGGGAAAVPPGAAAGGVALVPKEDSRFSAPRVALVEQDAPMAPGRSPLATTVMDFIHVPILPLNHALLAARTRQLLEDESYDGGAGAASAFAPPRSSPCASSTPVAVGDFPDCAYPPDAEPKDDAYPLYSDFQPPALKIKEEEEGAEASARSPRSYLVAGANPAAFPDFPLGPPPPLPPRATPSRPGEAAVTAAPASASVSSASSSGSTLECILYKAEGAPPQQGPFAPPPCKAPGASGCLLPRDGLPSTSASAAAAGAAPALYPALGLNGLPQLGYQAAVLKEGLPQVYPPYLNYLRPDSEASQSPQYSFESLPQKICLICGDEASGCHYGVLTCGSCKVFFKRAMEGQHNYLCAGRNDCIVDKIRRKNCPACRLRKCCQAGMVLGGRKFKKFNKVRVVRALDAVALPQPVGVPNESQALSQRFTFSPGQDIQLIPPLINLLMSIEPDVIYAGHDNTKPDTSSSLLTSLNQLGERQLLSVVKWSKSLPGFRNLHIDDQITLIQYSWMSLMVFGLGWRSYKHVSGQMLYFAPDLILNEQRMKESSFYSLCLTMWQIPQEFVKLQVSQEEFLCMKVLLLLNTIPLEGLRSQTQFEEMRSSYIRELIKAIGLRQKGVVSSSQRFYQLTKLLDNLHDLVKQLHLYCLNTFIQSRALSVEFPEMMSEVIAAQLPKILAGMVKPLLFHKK
- Method: NVS_NR_hPR: NovaScreen (NVS) Nuclear Receptor Binding Assay for human Progestron Receptor (PR) (AID 2283360);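 note: active means loss of bound radioligand signal versus DMSO baseline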
Inconclusive results are not listed. The source made the active and inactive calls. How the source made its calls: active means hit-call score of the fitted dose curve at least 0.9, where 1 is the maximum; inconclusive means response in the unintended direction; inactive means score below 0.9.
Choose the fitting class; nothing outside Yes (active), No (inactive) is accepted.

Give the logged outcome of this assay for the following compound: "CCCCCCC(=O)OCC"
No

Entry to check: "COC(=O)c1ccc(O)cc1"
No

Proceed to "Nc1ccccc1N"
No

"CCOc1ccc2c(c1)C(C)=CC(C)(C)N2" , same question.
Yes

Follow-up entry: "CNCc1cc(F)ccc1Oc1ccc(Cl)c(Cl)c1"
No

"Cc1cc(NC(=O)C(=O)O)cc(C)c1Oc1ccc(O)c2c1CCC2" , same question.
Yes

Proceed to COCCOC[C@H](CC1(C(=O)NC2CCC(C(=O)O)CC2)CCCC1)C(=O)Oc1ccc2c(c1)CCC2 (stereo partly specified)
No

Please answer likewise for "COc1cc(S(=O)(=O)O)c(C)cc1N=Nc1c(O)ccc2cc(S(=O)(=O)O)ccc12"
Yes

Now give it for "CN[C@H]1CC[C@@H](c2ccc(Cl)c(Cl)c2)c2ccc(S(N)(=O)=O)cc21" too.
No

Continue with CC1(C)CC(N=C=O)CC(C)(CN=C=O)C1 (stereo unspecified)
Yes

Also "CCOC(=O)C(C)(C)Oc1ccc(Cl)cc1" ?
No

====

- Read-out: flavin-containing dimethylaniline monooxygenases 3 (FMO3), FMO3 (gene 2328)
- Method: LTEA_HepaRG_FMO3: Life Technologies and Expression Analysis (LTEA) Assay for flavin-containing dimethylaniline monooxygenases 3 (FMO3) using HepaRG (AID 2283453)
- Assay setup: mRNA level, 48 h; actives raise or lower the signal
Calls of active or inactive are those of the source. Rule for the calls: active = hit-call score of the fitted dose curve at least 0.9, where 1 is the maximum; inactive = score below 0.9.
Allowed answers: y = active, n = inactive

Answer briefly: the call reported for "CCCCN(CCCC)CCCC" in this assay.
n

Field entry: "NC(=O)Cn1c(=O)cc(CCN2CCN(c3nccc4sccc34)CC2)c2ccc(F)cc21"
n

Same thing, different compound: "Cc1cccc([N+](=O)[O-])c1C"
n

Also check "CCOC(=O)C(C)(C)Oc1ccc(Cl)cc1"
n

Next up: "NS(=O)(=O)c1cc2c(cc1Cl)NCNS2(=O)=O"
n

And for "Nc1ccccc1N" ?
y

Next record, please: "C[C@]12C=CC(=O)C=C1CC[C@@H]1[C@@H]2C(=O)C[C@@]2(C)[C@H]1CC[C@]2(O)C(=O)CO"
n

Note, next up: "CCOc1ccc2c(c1)C(C)=CC(C)(C)N2"
n

Follow-up item: CCCCC(CC)COC(=O)CC(C(=O)OCC(CC)CCCC)S(=O)(=O)O (configuration not stated)
y

Input "CC(C)c1ccc(C(=O)N=C(N)N)cc1S(C)(=O)=O"
n

How about this compound: "Cc1cccc(Nc2cc(Cl)nc(SCC(=O)O)n2)c1C"
n

Here is the next compound: "NCC1(Cc2noc(=O)[nH]2)CCCCC1"
n

====

- Read-out: Glutamate-cysteine ligase catalytic (GCLC), GCLC (gene 2729)
- Method: LTEA_HepaRG_GCLC: Life Technologies and Expression Analysis (LTEA) Assay for Glutamate-cysteine ligase catalytic (GCLC) using HepaRG (AID 2283498)
- Assay setup: mRNA level, 48 h; actives raise or lower the signal
Calls of active or inactive are those of the source. Rule for the calls: active = hit-call score of the fitted dose curve at least 0.9, where 1 is the maximum; inactive = score below 0.9.
Your reply should match one of these outcome classes. active, inactive

Please state the recorded outcome for this molecule: "O=c1[nH]cc(F)c(=O)[nH]1"
inactive

What do you have for "O=C(OCCCCCOC(=O)c1ccccc1)c1ccccc1" ?
active

Queued: "CC(C)(C)c1cc(O)c(C(C)(C)C)cc1O"
inactive

Same question, "O=C(O)CCCCC(=O)O" this time
inactive

Can you check "C1CCC(SSC2CCCCC2)CC1" next?
inactive

Try this molecule next: "CCCCCCCCCCCC(=O)OC"
inactive

Cool, now "CCCCCCC(=O)OCC"
inactive

Record: "CCCCCCCCCCO"
inactive

# repeat for "CCCCCCCC=O"
inactive

Repeat for the following molecule: "Nc1ccc(S(=O)(=O)c2ccc(N)cc2)cc1"
inactive

Can you handle "CC(=O)OCCOCCOCCOC(C)=O" next?
inactive

What do you get for "Cc1cc(NC(=O)C(=O)O)cc(C)c1Oc1ccc(O)c2c1CCC2" ?
inactive

Okay, and "CCCCN(CCCC)CCCC" ?
inactive

Repeat with "COc1ccc(S(=O)(=O)N2C(=O)[C@@](c3ccccc3OC)(N3C[C@H](O)C[C@H]3C(=O)N(C)C)c3cc(Cl)ccc32)c(OC)c1"
active

Now consider "CCCCCCOCCO" and answer again.
inactive

Try this molecule next: CC(=O)C(C)=CC1C(C)=CCCC1(C)C (stereo unspecified)
inactive

And what about the molecule "Cc1ccc2ncccc2c1" ?
inactive

Another: "COc1cc(C=O)ccc1O"
inactive

Then "Cc1ccccc1Cl" ?
inactive

What about "CCCCCCCCCCCCCO" ?
inactive

Record: "CCCc1cc(=O)[nH]c(=S)[nH]1"
inactive

Request: CCCCC(CC)COC(=O)CC(C(=O)OCC(CC)CCCC)S(=O)(=O)O (stereo unspecified)
active

Another molecule to check: "C[Si]1(C)O[Si](C)(C)O[Si](C)(C)O[Si](C)(C)O1"
inactive

Another molecule: CC(CO)OC(C)CO (stereo unspecified) (tested in a mixture with another compound)
inactive

Field entry: "Cc1ccc(C(C)C)c(O)c1"
inactive

# iterate: "CCOC(=O)C(C)(C)Oc1ccc(Cl)cc1"
inactive

Same read-out for "Cc1cccc(Nc2cc(Cl)nc(SCC(=O)O)n2)c1C" ?
inactive

Item: "CCOc1ccc2c(c1)C(C)=CC(C)(C)N2"
inactive

Repeat for the following molecule: "CCCCCCCCCCCCCCCC"
inactive

Same for "CCCCCCCCCCCCCCCCCC(=O)O"
inactive

Repeat for the following molecule: "Cc1nc(C)nc(N2C[C@@H](C)N(c3ccnc([C@@H](C)O)n3)[C@@H](C)C2)n1"
inactive

"Cc1cccc([N+](=O)[O-])c1C" , same question.
inactive

Check "CCCCCCCCCCC" too.
inactive

Please do the same for "OC[C@@H](O)[C@@H](O)[C@H](O)[C@H](O)CO" as well.
inactive

How about this molecule: "CCCCCC(=O)O"
inactive

Another molecule to look at: "C[C@]12C=CC(=O)C=C1CC[C@@H]1[C@@H]2C(=O)C[C@@]2(C)[C@H]1CC[C@]2(O)C(=O)CO"
inactive

Another: "Cc1oc(-c2ccccc2)nc1CCOc1cccc2c1ccn2CCC(=O)O"
active

Param item: "Cc1cccc(C)c1O"
inactive

Record: "COCCOCCOC"
active

Param item: "O=C(N[C@@H](Cc1ccccc1)[C@@H](O)C(=O)N1C[C@@H](O)[C@@H](O)C1)c1cc2cc(Cl)ccc2[nH]1"
inactive

Follow-up entry: "CC=Cc1ccc(O)c(OC)c1"
inactive

# repeat for COCCOC[C@H](CC1(C(=O)NC2CCC(C(=O)O)CC2)CCCC1)C(=O)Oc1ccc2c(c1)CCC2 (stereo partly specified)
inactive

Try this molecule too: "COc1ccc(C)cc1N"
inactive

How about "CNCc1cc(F)ccc1Oc1ccc(Cl)c(Cl)c1" ?
inactive

Field entry: "CCCCOC(=O)CCCCCCCCC(=O)OCCCC"
inactive

Follow-up entry: "Oc1ccc2c(c1)OC[C@@H](N1CCC(O)(c3ccc(F)cc3)CC1)[C@H]2O"
inactive

One more molecule: "Nc1nc(N)c2nc(CNc3ccc(C(=O)N[C@@H](CCC(=O)O)C(=O)O)cc3)cnc2n1"
inactive

What about this molecule? "O=C(O)Cc1ccccc1Nc1c(Cl)cccc1Cl"
inactive

Another molecule to check: "Cc1ccc(C)c(C)c1"
inactive

Ok, now "CNC(=O)[C@H]1O[C@@H](n2cnc3c(NCc4cc(Cl)ccc4OCc4cc(C)no4)ncnc32)[C@H](O)[C@@H]1N"
inactive

Okay, and "NS(=O)(=O)c1cc2c(cc1Cl)NCNS2(=O)=O" ?
inactive

FYI, the data here is from PubChem BioAssay (EPA / NIEHS).
